- assayName: Antiproliferative activity against human A375P cells after 48 hrs by MTT assay
- Type: functional, cell-based
recordedEndpoint: IC50

Guide cases for IC50, answers given:
* O=C(Nc1ccc(-n2cc(-c3ccncc3)c(-c3ccc(Cl)c(O)c3)n2)cc1)Nc1ccc(Cl)c(Cl)c1 | 13.5 µM
* COc1cc(-c2nn(-c3ccc(NC(=O)Nc4ccc(Cl)c(Cl)c4)cc3)cc2-c2ccncc2)ccc1Cl | > 20 µM
* CNC(=O)c1cc(Oc2ccc(NC(=O)Nc3ccc(Cl)c(C(F)(F)F)c3)cc2)ccn1 [SORAFENIB] | 11.5 µM
* O=C(Nc1ccc(-n2cc(-c3ccncc3)c(-c3ccc(Cl)c(O)c3)n2)cc1)c1ccc(Cl)c(C(F)(F)F)c1 | 6.8 µM
* O=C(Nc1ccc(-n2cc(-c3ccncc3)c(-c3ccc(Cl)c(O)c3)n2)cc1)c1cc(C(F)(F)F)cc(C(F)(F)F)c1 | > 20 µM

[ask] Looking for the measured IC50 of COc1cc(-c2nn(-c3ccc(NC(=O)Nc4cccc(Cl)c4Cl)cc3)cc2-c2ccncc2)ccc1Cl , can you help?
[reply] > 20 µM

[ask] Requested read-out: IC50. Entry: COc1cc(-c2nn(-c3ccc(NC(=O)c4ccc(Cl)c(C(F)(F)F)c4)cc3)cc2-c2ccncc2)ccc1Cl
[reply] 9.8 µM

[ask] What does the data say about its IC50? Entry: O=C(Nc1ccc(-n2cc(-c3ccncc3)c(-c3ccc(Cl)c(O)c3)n2)cc1)Nc1ccc(Cl)c(C(F)(F)F)c1
[reply] 14.9 µM

[ask] IC50 for COc1cc(-c2nn(-c3ccc(NC(=O)Nc4ccc(Cl)c(C(F)(F)F)c4)cc3)cc2-c2ccncc2)ccc1Cl ?
[reply] 14 µM

[ask] Dear colleague, I am looking for the recorded IC50 of the following compound: O=C(Nc1ccc(-n2cc(-c3ccncc3)c(-c3ccc(Cl)c(O)c3)n2)cc1)Nc1cccc(Cl)c1Cl
[reply] 16.8 µM

[ask] GET /values?readout=IC50&item= O=C(Nc1ccc(-n2cc(-c3ccncc3)c(-c3ccc(Cl)c(O)c3)n2)cc1)Nc1cc(C(F)(F)F)cc(C(F)(F)F)c1
[reply] > 20 µM

* * *

- Test system: SK-MEL-28
- assayName: Antiproliferative activity against human SK-MEL-28 cells after 48 hrs by SRB assay
- Format: functional, cell-based
- details: SK-MEL-28, 48 h
recordedEndpoint: IC50 (µM)
Just the number please, in µM, no unit attached.

• COc1cc(-c2nn(-c3ccc(NC(=O)c4ccc(Cl)c(Cl)c4)cc3)cc2-c2ccncc2)ccc1Cl = 40.3
• COc1cc(-c2nn(-c3ccc(NC(=O)Nc4ccc(Cl)c(Cl)c4)cc3)cc2-c2ccncc2)ccc1Cl = 3.94
• O=C(Nc1ccc(-n2cc(-c3ccncc3)c(-c3ccc(Cl)c(O)c3)n2)cc1)c1ccc(Cl)c(Cl)c1 = 2.94
• O=C(Nc1ccc(-n2cc(-c3ccncc3)c(-c3ccc(Cl)c(O)c3)n2)cc1)c1cc(Cl)cc(Cl)c1 = 2.75

Here is another molecule to look at.
[ask] Reported IC50 for SK-MEL-28, given COc1cc(-c2nn(-c3ccc(NC(=O)c4ccc(Cl)c(C(F)(F)F)c4)cc3)cc2-c2ccncc2)ccc1Cl ?
[reply] 2.8

* * *

- Test system: UACC-257
- assayName: Antiproliferative activity against human UACC257 cells after 48 hrs by SRB assay
- Format: functional, cell-based
- details: UACC-257, 48 h
recordedEndpoint: pIC50
Reminder that pIC50 means the negative base-10 logarithm of the concentration expressed in mol/L.

* COc1cc(-c2nn(-c3ccc(NC(=O)c4ccc(Cl)c(C(F)(F)F)c4)cc3)cc2-c2ccncc2)ccc1Cl | 5.23
* COc1cc(-c2nn(-c3ccc(NC(=O)Nc4ccc(Cl)c(Cl)c4)cc3)cc2-c2ccncc2)ccc1Cl | 5.50
* COc1cc(-c2nn(-c3ccc(NC(=O)Nc4ccc(Cl)c(C(F)(F)F)c4)cc3)cc2-c2ccncc2)ccc1Cl | 5.79
* O=C(Nc1ccc(-n2cc(-c3ccncc3)c(-c3ccc(Cl)c(O)c3)n2)cc1)c1cc(Cl)cc(Cl)c1 | 5.24
* O=C(Nc1ccc(-n2cc(-c3ccncc3)c(-c3ccc(Cl)c(O)c3)n2)cc1)c1cc(C(F)(F)F)cc(C(F)(F)F)c1 | 5.05

From here, focus on the item given below.
[ask] Which pIC50 reading was recorded for the compound COc1cc(-c2nn(-c3ccc(NC(=O)Nc4cc(C(F)(F)F)cc(C(F)(F)F)c4)cc3)cc2-c2ccncc2)ccc1Cl ?
[reply] 5.64

* * *

- System: UACC-257
- assayName: Antiproliferative activity against human UACC257 cells after 48 hrs by SRB assay
- Assay type: functional, cell-based
- details: UACC-257, 48 h
recordedEndpoint: pIC50
Please note pIC50 is a logarithmic value: minus log10 of concentration in mol/L. Answer with that number alone.

* O=C(Nc1ccc(-n2cc(-c3ccncc3)c(-c3ccc(Cl)c(O)c3)n2)cc1)Nc1cc(C(F)(F)F)cc(C(F)(F)F)c1 | 5.70
* O=C(Nc1ccc(-n2cc(-c3ccncc3)c(-c3ccc(Cl)c(O)c3)n2)cc1)c1ccc(Cl)c(Cl)c1 | 5.32

[ask] Recorded pIC50 for O=C(Nc1ccc(-n2cc(-c3ccncc3)c(-c3ccc(Cl)c(O)c3)n2)cc1)c1ccc(Cl)c(C(F)(F)F)c1 , please?
[reply] 5.59

[ask] Look up pIC50 for this compound: O=C(Nc1ccc(-n2cc(-c3ccncc3)c(-c3ccc(Cl)c(O)c3)n2)cc1)Nc1ccc(Cl)c(C(F)(F)F)c1
[reply] 5.82

* * *

- Tested on: SK-MEL-28
- assayName: Antiproliferative activity against human SK-MEL-28 cells after 48 hrs by SRB assay
- Assay type: functional, cell-based
- details: SK-MEL-28, 48 h
recordedEndpoint: pIC50
# log scale: pIC50 equals minus log10 of the concentration in mol/L

- O=C(Nc1ccc(-n2cc(-c3ccncc3)c(-c3ccc(Cl)c(O)c3)n2)cc1)c1cc(C(F)(F)F)cc(C(F)(F)F)c1: 5.31
- O=C(Nc1ccc(-n2cc(-c3ccncc3)c(-c3ccc(Cl)c(O)c3)n2)cc1)Nc1cc(C(F)(F)F)cc(C(F)(F)F)c1: 5.70
- O=C(Nc1ccc(-n2cc(-c3ccncc3)c(-c3ccc(Cl)c(O)c3)n2)cc1)Nc1ccc(Cl)c(C(F)(F)F)c1: 5.79
- O=C(Nc1ccc(-n2cc(-c3ccncc3)c(-c3ccc(Cl)c(O)c3)n2)cc1)c1ccc(Cl)c(C(F)(F)F)c1: 5.97
- COc1cc(-c2nn(-c3ccc(NC(=O)Nc4cc(C(F)(F)F)cc(C(F)(F)F)c4)cc3)cc2-c2ccncc2)ccc1Cl: 5.71

[ask] Reported pIC50, compound COc1cc(-c2nn(-c3ccc(NC(=O)Nc4ccc(Cl)c(C(F)(F)F)c4)cc3)cc2-c2ccncc2)ccc1Cl : ____
[reply] 5.73

* * *

- assayName: Antiproliferative activity against human A375P cells after 48 hrs by MTT assay
- Assay type: functional, cell-based
recordedEndpoint: pIC50
For clarity, pIC50 is expressed as the negative log10 of concentration in mol/L.

Here is how some compounds turned out for pIC50.
* COc1cc(-c2nn(-c3ccc(NC(=O)c4ccc(Cl)c(Cl)c4)cc3)cc2-c2ccncc2)ccc1Cl | 4.89
* COc1cc(-c2nn(-c3ccc(NC(=O)Nc4cc(C(F)(F)F)cc(C(F)(F)F)c4)cc3)cc2-c2ccncc2)ccc1Cl | 4.93
* O=C(Nc1ccc(-n2cc(-c3ccncc3)c(-c3ccc(Cl)c(O)c3)n2)cc1)c1cc(Cl)cc(Cl)c1 | 5.17

[ask] Item O=C(Nc1ccc(-n2cc(-c3ccncc3)c(-c3ccc(Cl)c(O)c3)n2)cc1)c1ccc(Cl)c(Cl)c1 has what recorded pIC50?
[reply] 5.17
